// data source = ChEMBL document CHEMBL1201862

- Tested on: NCI-H522
- Test Method Notes: NCI tumour cell line growth inhibition, 48 h
Calls of active or inactive are those of the source. Cut-off read from the data, not from the text of the source: active = GI50 up to about 1.1 µM and inactive = higher.
Answer with one of the outcomes active, inactive

Please review the entries below; each comes with its answer.
>>> discrete_label("COC1=C(OC)C(=O)c2cc(C)c(=O)c(C)cc2C1=O")
"inactive"
>>> discrete_label("Cc1[nH]nc(C(=O)N/N=C/c2cccs2)c1/N=N\\N(C)C")
"inactive"
>>> discrete_label("C=CCNC1=C2C[C@@H](C)C[C@@H](OC)[C@H](OC(=O)CN(C)C)[C@H](C)/C=C(\\C)[C@@H](OC(N)=O)[C@H](OC)/C=C\\C=C(/C)C(=O)NC(=CC1=O)C2=O")
"active"
>>> discrete_label("O=C1C(Cl)=C(Nc2ccc(S(=O)(=O)Nc3ccccn3)cc2)C(=O)c2ccccc21")
"inactive"
>>> discrete_label("COc1ccc(C(=O)C#Cc2cn(C3CC(O)C(CO)O3)c(=O)[nH]c2=O)cc1 (centres undefined)")
"inactive"
>>> discrete_label("CC1(C)OP(=O)(c2ccccc2)C=C1Br (centres undefined)")
"inactive"
>>> discrete_label("C=CC1=CSNN1")
"inactive"
>>> discrete_label("NC1=NN(c2ccccc2)C(=O)C1C(=O)C(=O)Nc1ccc(Cl)c(Cl)c1 (centres undefined)")
"inactive"
>>> discrete_label("COc1ccc(C(=O)O[C@H]2[C@@H]3C=CO[C@@H](OC4OC(CO)C(O)C(O)C4O)[C@@H]3[C@@]3(CO)O[C@@H]23)cc1O (some centres undefined)")
"inactive"
>>> discrete_label("CCC(=O)O[C@@H]1C2C(OC(C)=O)C34COC(C)([C@@H]3C3C(C[C@]3(C)OC(C)=O)[C@@H](OC(=O)c3ccccc3)C4=O)[C@H](OC(C)=O)[C@@]2(OC(C)=O)C[C@@H]1C (some centres undefined)")
"inactive"

For this molecule, state the assay outcome: `COC[C@@H]1Cc2cc(OC)c3c(c2[C@H](c2ccc(OC)c(OC)c2)[C@H]1COC)OCO3` inactive

Queued: `Cc1cnc2c(c1)C(=O)N(c1ccc(Oc3ccccc3)cc1)S2(=O)=O` inactive

Thanks! And C=C1CC2CC[C@@]34C[C@@H]5O[C@@H]6C(O[C@H]7CC[C@H](CC(=O)OC8[C@@H](C)C9OC%10C[C@]%11(C[C@@H]%12O[C@@]%13(C[C@@H](C)[C@@H]%12O%11)C[C@H](C)[C@@H]%11OC%12CC(C(O)CO)OC%12C[C@@H]%11O%13)OC%10CC9O[C@H]8C[C@H]8O[C@@H](CC[C@@H]1O2)C[C@@H](C)C8=C)O[C@@H]7[C@@H]6O3)C5O4 (some centres undefined) ? active

Let us now turn to C[C@@H]1CC2(C[C@@H](C)C3[C@@H](CC4(C)CCCC5C6=CC(O)(CC[C@]34C)OC6=CC(=O)OC5(C)C)O2)OC1=O (some centres undefined) inactive

Also, `CN(C)c1cccc(-c2cc(O)c3cc4c(cc3n2)OCO4)c1` please. active

Proceed to O=C(c1ccccc1)c1ccc2cccc(OC3OC(CO)C(O)C(O)C3O)c2n1 (centres undefined) inactive

And for `Nc1cccc(CCN2CCN(CCCc3ccccc3)CC2)c1` ? inactive

Can you handle `Oc1ccc(C[C@@H]2CN[C@H](Cc3ccc(O)c(Br)c3)CN2)cc1` next? inactive

Please give the result for `O=C(NCCCCNCCCNC(=O)OCc1ccccc1)OCc1ccccc1` too. inactive

Queued: `S=c1[nH]c(=S)c2cc(Sc3ccc4[nH]c(=S)[nH]c(=S)c4c3)ccc2[nH]1` inactive

Then this molecule: `O=C1c2ccccc2C(=O)c2c(O)ccc(O)c21` inactive

Another molecule: C(=C\c1ccccc1)/COc1ccccc1C(N1CCOCC1)n1nc2ccccc2n1 (centres undefined) inactive

What about this molecule? `COc1ccc2c(c1)OCC1=C2Oc2ccccc2C1` inactive

Another: `CCOC(=O)CN1CC(C2=C(O)CN(CC(=O)OCC)C2=O)=CC1=O` inactive

What about this molecule? `O=C1C=CC(=O)c2c1ccc1c3ccccc3n(-c3ccccn3)c21` inactive

Request: `O=C1c2cc([N+](=O)[O-])cnc2S(=O)(=O)N1c1ccc(Oc2ccccc2)cc1` inactive

Item: `O=C(N/C(=C/c1cccc([N+](=O)[O-])c1)c1nc2cc(Cl)ccc2[nH]1)c1ccccc1` inactive

# iterate: `CC1=C(Cl)C[C@@H](/C(C)=C\Cl)O[C@@]1(O)C(Br)Br` inactive

Now consider `COC(=O)c1cc2c(cc1O)[C@@H](NC(C)=O)CCc1cc(OC)c(OC)c(OC)c1-2` and answer again. active

Please answer likewise for CCCCCCCCCCCCCCCCCCNc1ccn(C2OC(COP(=O)(O)OCC3OC(n4ccc(NC(=O)CCCCCCCCCCCCCCCCC)nc4=O)C(OC(C)=O)C3OC(C)=O)C(OC(C)=O)C2OC(C)=O)c(=O)n1 (centres undefined) inactive

Next molecule up: CN1C(=O)C(C(N)=O)C2CC1(C)Oc1ccccc12 (centres undefined) inactive

What do we get for `COc1cc(C(CC(OC)OC)=C(C#N)C#N)cc(OC)c1OC` ? inactive

And for `CC(=O)O[C@@H]1[C@H]2[C@@H](OC(=O)c3ccccc3)[C@@H](C)C[C@]2(O)[C@H](OC(C)=O)[C@@]2(C)[C@@H]3CC(C)(C)C(=O)[C@]3(OC(C)=O)C[C@@]12C` ? inactive

Now this one: `CON(C)C(=O)CCCO` inactive
